Every entry's value here was drawn from patent US10519114B2.

Tested system: rat δ (C6-DOR) opioid receptor (Rattus norvegicus, UniProt P33533)
Sequence (P33533 whole entry): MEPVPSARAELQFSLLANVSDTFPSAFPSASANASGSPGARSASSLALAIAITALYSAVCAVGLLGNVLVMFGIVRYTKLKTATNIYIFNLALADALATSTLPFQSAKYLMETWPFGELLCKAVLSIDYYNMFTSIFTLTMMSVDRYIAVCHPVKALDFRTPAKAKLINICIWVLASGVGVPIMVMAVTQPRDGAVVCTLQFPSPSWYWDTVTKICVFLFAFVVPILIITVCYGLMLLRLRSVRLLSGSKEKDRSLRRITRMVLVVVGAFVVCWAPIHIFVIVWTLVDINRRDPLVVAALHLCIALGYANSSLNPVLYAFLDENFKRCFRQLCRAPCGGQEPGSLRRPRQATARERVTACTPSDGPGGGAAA
I'd appreciate it if you could supply Ki values for the items below.
Express it in nM; write the number only.

Send back rat δ (C6-DOR) opioid receptor (Rattus norvegicus, UniProt P33533) Ki of CC(=O)N1CC[C@@H](NC(=O)[C@@H](N)Cc2c(C)cc(O)cc2C)c2cc(-c3ccccc3)ccc21 only. 1.32

Recall the reported Ki of CC(=O)N1CC[C@@H](NC(=O)[C@@H](N)Cc2c(C)cc(O)cc2C)c2cc(Cc3ccccc3)cc(C)c21 on rat δ (C6-DOR) opioid receptor (Rattus norvegicus, UniProt P33533) and write it down. 1.88

Quote Ki with test system rat δ (C6-DOR) opioid receptor (Rattus norvegicus, UniProt P33533) for Cc1cc(O)cc(C)c1C[C@H](N)C(=O)N[C@@H]1CCCc2ccc(-c3cccc4ccccc34)cc21 45.5

Report Ki under test system rat δ (C6-DOR) opioid receptor (Rattus norvegicus, UniProt P33533) for Cc1cc(O)cc(C)c1C[C@H](N)C(=O)N(C1CC1)C1CCNc2ccc(Cc3ccccc3)cc21 (stereo partly shown) . 52.5

Name the value of Ki reported for CC(=O)N1CC[C@@H](NC(=O)[C@@H](N)Cc2c(C)cc(O)cc2C)c2cc(CN3CCc4ccc(F)cc4C3)ccc21 when tested on rat δ (C6-DOR) opioid receptor (Rattus norvegicus, UniProt P33533). 0.77

GET Ki | system: rat δ (C6-DOR) opioid receptor (Rattus norvegicus, UniProt P33533) | item: Cc1cc(O)cc(C)c1C[C@H](N)C(=O)N[C@@H]1CC[C@@H](C)c2ccc(Cc3ccccc3)cc21 15.8

Give Ki for Cc1cc(O)cc(C)c1C[C@H](N)C(=O)N[C@@H]1CCNc2ccc(CN3CCCC4(CCCCC4)CC3)cc21 tested on rat δ (C6-DOR) opioid receptor (Rattus norvegicus, UniProt P33533). 17

State Ki (rat δ (C6-DOR) opioid receptor (Rattus norvegicus, UniProt P33533)) of Cc1cc(O)cc(C)c1C[C@H](N)C(=O)N[C@@H]1CCNc2ccc(Cc3c(Cl)cccc3Cl)cc21 . 4.61

Provide Ki, tested on rat δ (C6-DOR) opioid receptor (Rattus norvegicus, UniProt P33533), for Cc1cc(O)cc(C)c1C[C@H](N)C(=O)N[C@@H]1CCNc2cc(Cc3ccccc3)ccc21 . 25.8

Look up and report measured Ki (rat δ (C6-DOR) opioid receptor (Rattus norvegicus, UniProt P33533)) for the following compound: Cc1cc(O)cc(C)c1C[C@H](N)C(=O)N[C@@H]1CCNc2ccc(CN3CCC4(CCCCC4)C3)cc21 14.1

Report value only: Ki, rat δ (C6-DOR) opioid receptor (Rattus norvegicus, UniProt P33533), CC(=O)N1CC[C@@H](NC(=O)[C@@H](N)Cc2c(C)cc(O)cc2C)c2cc(CN3CCc4cccc(C(F)(F)F)c4C3)ccc21 3.05

State the measured Ki (rat δ (C6-DOR) opioid receptor (Rattus norvegicus, UniProt P33533)) of Cc1cc(O)cc(C)c1C[C@H](N)C(=O)N[C@@H]1CCNc2ccc(CC3Cc4cccc(O)c4C3)cc21 (stereo partly shown) 6.01

Give Ki for this entry on rat δ (C6-DOR) opioid receptor (Rattus norvegicus, UniProt P33533): Cc1cc(O)cc(C)c1C[C@H](N)C(=O)N[C@@H]1CCNc2c1cc(Cc1ccccc1)cc2C(C)(C)C 3.78

Recall the reported Ki of Cc1cc(C(N)=O)cc(C)c1C[C@H](N)C(=O)N[C@@H]1CCNc2ccc(Cc3ccccc3)cc21 on rat δ (C6-DOR) opioid receptor (Rattus norvegicus, UniProt P33533) and write it down. 32.3

Provide measured Ki on rat δ (C6-DOR) opioid receptor (Rattus norvegicus, UniProt P33533) for Cc1cc(O)cc(C)c1C[C@H](N)C(=O)N[C@@H]1CCNc2c(C(=O)O)cc(Cc3ccccc3)cc21 please. 2.3

Provide rat δ (C6-DOR) opioid receptor (Rattus norvegicus, UniProt P33533) Ki reading for Cc1cc(O)cc(C)c1C[C@H](N)C(=O)N[C@@H]1CCNc2ccc(CN3CCNCC3)cc21 . 1560

# assay system rat δ (C6-DOR) opioid receptor (Rattus norvegicus, UniProt P33533): give Ki of Cc1cc(O)cc(C)c1C[C@H](N)C(=O)N[C@@H]1CCCc2ccc(-c3ccc4ccccc4c3)cc21 6.03

Give Ki for Cc1cc(O)cc(C)c1C[C@H](N)C(=O)N[C@@H]1CCNc2c(-c3ccoc3)cc(Cc3ccccc3)cc21 tested on rat δ (C6-DOR) opioid receptor (Rattus norvegicus, UniProt P33533). 3.49

Provide the reported Ki (system: rat δ (C6-DOR) opioid receptor (Rattus norvegicus, UniProt P33533)) for COc1cc2c(cc1Cc1ccccc1)[C@H](NC(=O)[C@@H](N)Cc1c(C)cc(O)cc1C)CCN2 2.84

Fill in: Ki on rat δ (C6-DOR) opioid receptor (Rattus norvegicus, UniProt P33533), entry Cc1cc(O)cc(C)c1C[C@H](N)C(=O)N[C@@H]1CCNc2ccc(S(=O)(=O)c3ccccc3)cc21 2.92

Give reported Ki for COc1cccc2c1CC(Cc1ccc3c(c1)[C@H](NC(=O)[C@@H](N)Cc1c(C)cc(O)cc1C)CCN3)C2 (stereo partly shown) (rat δ (C6-DOR) opioid receptor (Rattus norvegicus, UniProt P33533)) 4.13

Write Ki of CCOC(=O)c1cc(Cc2ccccc2)cc2c1NCC[C@H]2NC(=O)[C@@H](N)Cc1c(C)cc(O)cc1C ; system used: rat δ (C6-DOR) opioid receptor (Rattus norvegicus, UniProt P33533) 4.2

Provide rat δ (C6-DOR) opioid receptor (Rattus norvegicus, UniProt P33533) Ki reading for Cc1cc(O)cc(C)c1C[C@H](N)C(=O)N[C@@H]1CC[C@H](C)c2ccc(Cc3ccccc3)cc21 . 5.85

Provide the reported Ki (system: rat δ (C6-DOR) opioid receptor (Rattus norvegicus, UniProt P33533)) for Cc1ccc(Cc2ccc3c(c2)[C@@H](NC(=O)[C@@H](N)Cc2c(C)cc(O)cc2C)CCN3)cc1 582

Find the measured Ki of Cc1cc(O)cc(C)c1C[C@H](N)C(=O)N[C@@H]1CCNc2c(C(=O)NCc3ccccc3)cc(Cc3ccccc3)cc21 with rat δ (C6-DOR) opioid receptor (Rattus norvegicus, UniProt P33533) as test system. 2.17

Write down the reported Ki (system: rat δ (C6-DOR) opioid receptor (Rattus norvegicus, UniProt P33533)) of Cc1cc(O)cc(C)c1C[C@H](N)C(=O)N[C@@H]1CCNc2ccc(CN3CCC4(CCCCC4)CC3)cc21 36.5

Provide the reported Ki (system: rat δ (C6-DOR) opioid receptor (Rattus norvegicus, UniProt P33533)) for COc1ccc2c(c1)CC(Cc1ccc3c(c1)[C@H](NC(=O)[C@@H](N)Cc1c(C)cc(O)cc1C)CCN3)C2 (stereo partly shown) 6.15

State recorded Ki with rat δ (C6-DOR) opioid receptor (Rattus norvegicus, UniProt P33533), entry Cc1cc(O)cc(C)c1C[C@H](N)C(=O)N[C@@H]1CCNc2c(-c3cc4ccccc4o3)cc(Cc3ccccc3)cc21 , no comment. 71
